Overview of reported melting point across a group of molecules:
The response must be a number in °C with no trailing unit.

Some solved cases for reference:
{"molecule": "COc1cccc(-c2ccc([C@@H]3[C@@H](CC[C@H](O)c4ccc(F)cc4)C(=O)N3c3ccc(F)cc3)cc2)c1OC [Example 11]", "unit annotation": "°C", "melting point": 101}
{"molecule": "O=C1[C@H](CC[C@H](O)c2ccc(F)cc2)[C@@H](c2ccc(-c3cccc(O)c3)cc2)N1c1ccc(F)cc1 [Example 4]", "unit annotation": "°C", "melting point": 107}

Query molecule follows.
Value lookup for melting point; key = COc1ccc(-c2ccc([C@@H]3[C@@H](CC[C@H](O)c4ccc(F)cc4)C(=O)N3c3ccc(F)cc3)cc2)cc1 [Example 5]
103
